Molecular target: MMP9 (Homo sapiens, UniProt P14780)
Sequence (P14780 94-707): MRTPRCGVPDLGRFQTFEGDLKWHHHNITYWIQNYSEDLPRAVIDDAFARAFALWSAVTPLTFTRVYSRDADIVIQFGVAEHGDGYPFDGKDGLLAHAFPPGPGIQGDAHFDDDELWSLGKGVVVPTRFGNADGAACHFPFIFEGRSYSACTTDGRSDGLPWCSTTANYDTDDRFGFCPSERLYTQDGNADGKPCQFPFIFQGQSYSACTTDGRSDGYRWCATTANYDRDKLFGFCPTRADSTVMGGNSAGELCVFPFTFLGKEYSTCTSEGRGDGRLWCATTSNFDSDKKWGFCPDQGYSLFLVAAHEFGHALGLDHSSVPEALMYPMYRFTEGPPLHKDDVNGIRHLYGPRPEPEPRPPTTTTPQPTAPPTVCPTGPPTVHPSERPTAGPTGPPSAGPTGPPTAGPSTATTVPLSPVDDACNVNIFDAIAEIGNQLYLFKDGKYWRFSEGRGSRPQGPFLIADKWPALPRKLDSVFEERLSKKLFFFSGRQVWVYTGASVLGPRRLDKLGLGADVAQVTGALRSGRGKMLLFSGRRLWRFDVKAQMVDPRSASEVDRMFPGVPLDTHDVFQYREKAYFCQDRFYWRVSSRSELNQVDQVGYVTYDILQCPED
Assay: MMP-9 colorimetric inhibition assay (Enzo kit BML-AK410)
Format: biochemical
Details: thiopeptide substrate, absorbance 415 nm; read-out: MMP 9 IC50 class
Recorded IC50 by entry
quantity.kind: IC50

molecule_smiles=CC(C)Oc1ccc(Oc2ccc(S(=O)(=O)N3C[C@H]4CC[C@@H]([C@@H]3C(=O)NO)N4C(=O)C(C)(C)C)cn2)cc1 quantity_kind=IC50 recorded_value="0.05 to 1 µM"
molecule_smiles=COc1ccc(Oc2ccc(S(=O)(=O)N3C[C@H]4CC[C@@H]([C@@H]3C(=O)NO)N4C(C)=O)cn2)cc1F quantity_kind=IC50 recorded_value="< 0.05 µM"
molecule_smiles=COCCOC(=O)N1[C@@H]2CC[C@H]1[C@H](C(=O)NO)N(S(=O)(=O)c1ccc(Oc3cnc(OC)nc3)nc1)C2 quantity_kind=IC50 recorded_value="0.05 to 1 µM"
molecule_smiles=CN(C)C(=O)CN1[C@@H]2CC[C@H]1[C@H](C(=O)NO)N(S(=O)(=O)c1ccc(Oc3ccc(F)cc3)nc1)C2 quantity_kind=IC50 recorded_value="0.05 to 1 µM"
molecule_smiles=COCCOC(=O)N1[C@@H]2CC[C@H]1[C@H](C(=O)NO)N(S(=O)(=O)N1CCC(Oc3ccc(C(F)(F)F)cc3)CC1)C2 quantity_kind=IC50 recorded_value="< 0.05 µM"
molecule_smiles=COCCOC(=O)N1[C@@H]2CC[C@H]1[C@H](C(=O)NO)N(S(=O)(=O)N1CCC(Oc3ccnc(C(F)(F)F)c3)CC1)C2 quantity_kind=IC50 recorded_value="0.05 to 1 µM"
molecule_smiles=COCCOC(=O)N1[C@@H]2CC[C@H]1[C@H](C(=O)NO)N(S(=O)(=O)c1ccc(Oc3ccc(OC)c(F)c3)nc1)C2 quantity_kind=IC50 recorded_value="< 0.05 µM"
molecule_smiles=COCCOC(=O)N1[C@@H]2CC[C@H]1[C@H](C(=O)NO)N(S(=O)(=O)c1ccc(Oc3ccc(OC)nc3)nc1)C2 quantity_kind=IC50 recorded_value="< 0.05 µM"
molecule_smiles=COCCOC(=O)N1[C@@H]2CC[C@H]1[C@H](C(=O)NO)N(S(=O)(=O)N1CCN(Cc3ccc(OC)cc3)CC1)C2 quantity_kind=IC50 recorded_value="0.05 to 1 µM"
molecule_smiles=CCOC(=O)N1[C@@H]2CC[C@H]1[C@H](C(=O)NO)N(S(=O)(=O)c1ccc(Oc3ccc(F)cc3)nc1)C2 quantity_kind=IC50 recorded_value="< 0.05 µM"
molecule_smiles=COCCOC(=O)N1[C@@H]2CC[C@H]1[C@H](C(=O)NO)N(S(=O)(=O)N1CCC(Oc3ccc(F)cc3)CC1)C2 quantity_kind=IC50 recorded_value="< 0.05 µM"
molecule_smiles=COCCOC(=O)N1[C@@H]2CC[C@H]1[C@H](C(=O)NO)N(S(=O)(=O)c1ccc(Oc3nc4cc(Cl)ccc4o3)c(F)c1)C2 quantity_kind=IC50 recorded_value="1 to 10 µM"
molecule_smiles=COCCOC(=O)N1[C@@H]2CC[C@H]1[C@H](C(=O)NO)N(S(=O)(=O)N1CCN(C(=O)c3ccc(Cl)cc3)CC1)C2 quantity_kind=IC50 recorded_value="1 to 10 µM"
molecule_smiles=O=C(NO)[C@H]1[C@@H]2CC[C@H](CN1S(=O)(=O)c1ccc(Oc3ccc(F)cc3)nc1)N2C(=O)N1CCOCC1 quantity_kind=IC50 recorded_value="0.05 to 1 µM"
molecule_smiles=CC(C)Oc1ccc(Oc2ccc(S(=O)(=O)N3C[C@H]4CC[C@@H]([C@@H]3C(=O)NO)N4C(=O)N3CCOCC3)cn2)cc1 quantity_kind=IC50 recorded_value="0.05 to 1 µM"
molecule_smiles=COCCOC(=O)N1[C@@H]2CC[C@H]1[C@H](C(=O)NO)N(S(=O)(=O)c1ccc(Oc3ccc(OC(C)C)cc3)nc1)C2 quantity_kind=IC50 recorded_value="< 0.05 µM"
molecule_smiles=COCCOC(=O)N1[C@@H]2CC[C@H]1[C@H](C(=O)NO)N(S(=O)(=O)c1ccc(Oc3ccc(OC(F)(F)F)cc3)nc1)C2 quantity_kind=IC50 recorded_value="< 0.05 µM"
molecule_smiles=COCCOC(=O)N1[C@@H]2CC[C@H]1[C@H](C(=O)NO)N(S(=O)(=O)c1ccc(Oc3nc4ccccc4o3)c(F)c1)C2 quantity_kind=IC50 recorded_value="1 to 10 µM"
molecule_smiles=COCCOC(=O)N1[C@@H]2CC[C@H]1[C@H](C(=O)NO)N(S(=O)(=O)c1ccc(Oc3cnn(-c4ccc(F)cc4)c3)nc1)C2 quantity_kind=IC50 recorded_value="< 0.05 µM"
molecule_smiles=COCCOC(=O)N1[C@@H]2CC[C@H]1[C@H](C(=O)NO)N(S(=O)(=O)c1ccc(Oc3nc4ccc(Cl)cc4o3)c(F)c1)C2 quantity_kind=IC50 recorded_value="1 to 10 µM"
molecule_smiles=COCCOC(=O)N1[C@@H]2CC[C@H]1[C@H](C(=O)NO)N(S(=O)(=O)c1ccc(Oc3ccc(F)cc3)c(F)c1)C2 quantity_kind=IC50 recorded_value="< 0.05 µM"
molecule_smiles=CCOc1ccc(Oc2ccc(S(=O)(=O)N3C[C@H]4CC[C@@H]([C@@H]3C(=O)NO)N4C(=O)OCCOC)cn2)cc1 quantity_kind=IC50 recorded_value="< 0.05 µM"
molecule_smiles=CC(C)Oc1ccc(Oc2ccc(S(=O)(=O)N3C[C@H]4CC[C@@H]([C@@H]3C(=O)NO)N4C(=O)C(C)C)cn2)cc1 quantity_kind=IC50 recorded_value="< 0.05 µM"
molecule_smiles=COCCOC(=O)N1[C@@H]2CC[C@H]1[C@H](C(=O)NO)N(S(=O)(=O)c1cc(F)c(Oc3ccc(Cl)cc3)c(F)c1)C2 quantity_kind=IC50 recorded_value="0.05 to 1 µM"
molecule_smiles=COCCOC(=O)N1[C@@H]2CC[C@H]1[C@H](C(=O)NO)N(S(=O)(=O)c1ccc(Oc3ccc(Cl)c(F)c3)nc1)C2 quantity_kind=IC50 recorded_value="< 0.05 µM"
molecule_smiles=O=C(NO)[C@H]1[C@@H]2CC[C@H](CN1S(=O)(=O)c1ccc(Oc3ccc(F)cc3)nc1)N2CC(=O)N1CCCC1 quantity_kind=IC50 recorded_value="0.05 to 1 µM"

All values here come from patent US20250215010A1.
